- Test Summary: collision cross section (N2, base ion); higher = larger ion cross section
Readout: collision cross section (Å²)

{"columns": ["Compound", "Readout", "Data Value"],
 "data": [
  ["c1ccc2c(c1)ccc1cc3c(ccc4ccccc43)cc12 [Dibenzo(a,h)anthracene] (APCI source condition: Dry, base ion: M+.)", "collision cross section", 154.91],
  ["Clc1ccc(Cl)c(-c2c(Cl)ccc(Cl)c2Cl)c1Cl [PCB136] (APCI source condition: Dry, base ion: M+.)", "collision cross section", 155.08],
  ["O=S1OC[C@@H]2[C@H](CO1)[C@]1(Cl)C(Cl)=C(Cl)[C@]2(Cl)C1(Cl)Cl (stereo partly drawn) [β-Endosulfan] (APCI source condition: Wet, base ion: [M+H]+)", "collision cross section", 162.35],
  ["c1ccc2cc3c(cc2c1)-c1cccc2cccc-3c12 [Benzo(k)fluoranthene] (APCI source condition: Dry, base ion: M+.)", "collision cross section", 145.45],
  ["CCCCC(CC)COC(=O)c1cc(Br)c(Br)c(Br)c1Br (configuration not stated) [2-Ethylhexyl-2,3,4,5-tetrabromobenzoate] (APCI source condition: Dry, base ion: C7H3Br4O2+)", "collision cross section", 141.48],
  ["Brc1cc(Br)c(Oc2c(Br)cc(Br)c(Br)c2Br)c(Br)c1 [PBDE 184] (APCI source condition: Dry, base ion: M+.)", "collision cross section", 181.4],
  ["Clc1cccc(-c2cccc(Cl)c2Cl)c1 [PCB 20] (APCI source condition: Dry, base ion: M+.)", "collision cross section", 140.68],
  ["Brc1ccc(Oc2ccc(Br)cc2Br)c(Br)c1 [PBDE 47] (APCI source condition: Dry, base ion: M+.)", "collision cross section", 162.71],
  ["Brc1cccc(Oc2c(Br)c(Br)c(Br)c(Br)c2Br)c1Br [PBDE 173] (APCI source condition: Dry, base ion: M+.)", "collision cross section", 185.08],
  ["CCCCCCCCCCCCCCCCC(F)(F)C(F)(F)C(F)(F)C(F)(F)C(F)(F)C(F)(F)C(F)(F)C(F)(F)C(F)(F)C(F)(F)F [1-(Henicosafluorodecyl)hexadecane] (APCI source condition: Dry, base ion: [M-H]+)", "collision cross section", 241.65],
  ["Brc1ccc(Oc2ccc(Br)c(Br)c2)c(Br)c1 [PBDE 66] (APCI source condition: Dry, base ion: M+.)", "collision cross section", 163.83],
  ["c1ccc2c(c1)-c1ccc3ccc4cccc5cc-2c1c3c45 [Indeno(1,2,3-cd)pyrene] (APCI source condition: Dry, base ion: M+.)", "collision cross section", 148.24]
]}
